The measurements presented in this section are drawn from patent EP4786540A1.

# assay_remarks: physchem
# assay_context: 25 °C, organic solvent or mixture, thermodynamic from solid
# Procedure: The acid component (B) preferably has high solubility in a good solvent for the modified conjugated diene-based polymer (A). An acid or a metal salt thereof (1.0 g) was added to cyclohexane (1.0 L), and the system was tightly closed. The contents were mixed at 25°C for 5 minutes. The resultant liquid mixture was allowed to stand for 10 minutes, and then the state of the liquid mixture was visually observed.
recorded_endpoint: solubility at 5 min

Need solubility at 5 min of O=C(O)c1ccccc1C(=O)O [b-2, phthalic acid] , thanks. ≥ 1000 µg/mL
